# Target: Alpha-1D adrenergic receptor (Homo sapiens, UniProt P25100)
# Sequence (P25100 whole entry): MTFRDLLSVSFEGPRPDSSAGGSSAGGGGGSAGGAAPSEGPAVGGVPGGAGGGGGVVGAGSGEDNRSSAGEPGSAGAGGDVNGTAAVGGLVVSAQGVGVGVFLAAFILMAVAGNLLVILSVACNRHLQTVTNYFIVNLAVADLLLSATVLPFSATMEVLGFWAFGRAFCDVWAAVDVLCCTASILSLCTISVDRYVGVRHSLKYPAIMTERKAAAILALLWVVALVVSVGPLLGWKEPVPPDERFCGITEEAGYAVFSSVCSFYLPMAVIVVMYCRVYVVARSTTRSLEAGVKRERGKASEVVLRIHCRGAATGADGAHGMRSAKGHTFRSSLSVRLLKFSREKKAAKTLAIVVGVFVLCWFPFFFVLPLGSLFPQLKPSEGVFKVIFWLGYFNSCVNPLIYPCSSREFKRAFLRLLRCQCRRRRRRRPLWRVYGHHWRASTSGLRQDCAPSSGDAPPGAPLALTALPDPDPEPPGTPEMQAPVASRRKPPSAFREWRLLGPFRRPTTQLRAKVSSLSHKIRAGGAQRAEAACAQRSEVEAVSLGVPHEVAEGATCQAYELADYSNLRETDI
# Test Summary: Selectivity interaction (GPCR panel (PDSP screen)) EUB0000705a ADRA1D
pKi: −log10 of the molar value.
Property: pKi

GET /values?readout=pKi&item= CN1CCN(C(=O)C(C)(C)c2ccc(C(=O)Nc3cn4cc(-c5cc(C(C)(C)C)cc(C(C)(C)C)c5)ccc4n3)cc2)CC1 [T3-CLK-N] < 5.00
